Hello, the source for this data is patent US20230118024A1, in case you need it.

Molecular target: T1, HLA-DQ2.5/33mer gliadin peptide complex on Ba/F3 cells (human; wheat)
T1 construct: also called Ba/F3-HLA-DQ2.5/33mer gliadin peptide; HLA-DQ2.5/gliadin peptide complex
Test: FACS
ENDPOINT: FIG. 30 FACS value (IC17=0, DQN0139bb=100)

[
  {
    "BINDER": "DQN0223hh (antibody, human IgG1, kappa, V domains shown, also called DQN0223Lh) VH: QQQLEESGGGLVKPGGTLTLTCKASRIDFSTYYYICWVRQSPWKGLEWIACIYSGDGYTYYPSWAKGRFSISKTSSTTVTLQVTSLTAADTATYFCARSYGGSSASAYFTLWGPGTQVTVSS VL: AVVLTQTASPVSAPVGGTVTIKCQASQSIGSNLGWYQQKPGQPPKLLIYGASALASGVPSRFKGSGSGTQFTLTINDLECADAATYYCQGYYYSSSAEWHSFGGGTKVEIKR",
    "READOUT_VALUE": 59.5
  },
  {
    "BINDER": "DQN0303hh (antibody, human IgG1, kappa, V domains shown, also called DQN0303Lh) VH: QQHLEESGGGLVKPGGTLTLTCTASGIDFSSYYYMCWVRQAPGKGLEWIACIYTGDGSTYYASWVNGRFTISRSTSLNTVTLQLNGLAAADTATYFCARSYGASSAIGYFNLWGPGTLVTVSS VL: DVVMTQTPSSKSAAVGGTVTIKCQASQNIYSNLAWYQQKPGQRPKLLIYEASTLASGVPSRFRGSGSGTEFTLTISDLECDDAATYYCQNYYYTSSNDFYTFGGGTKVEIKR",
    "READOUT_VALUE": 72.8
  },
  {
    "BINDER": "DQN0356bb (antibody, human IgG1, kappa, V domains shown, also called DQN0356Hb; DQN0356Lb) VH: QEQLVESGGGLVKPEGSLTLTCTASGFSFSSDYSVCWVRQAPGKGLEWIGCIYTGSDITYYASWAKGRFTISKTSSTTVTLQMTSLTAADTATWFCARSWNGYGGYADLWGPGTLVTVSS VL: AYDMAQTPASVEVAVGGTVTIKCQASQSIDNYLAWYQQKPGQPPKLLIYWASTLASGVSSRFKGSGSGTQFSLTISDLECADAATYYCQQYYSNSNVVNTFGGGTKVEIKR",
    "READOUT_VALUE": 91.1
  },
  {
    "BINDER": "DQN0225dd (antibody, human IgG1, kappa, V domains shown, also called DQN0225Hd; DQN0225Ld) VH: QSLEESGGGLVKPGGTLTLTCTASGFSFSSAYYMCWVRQAPGKGLEWIACIYVGSGSTYYASWAQGRCTISKASSTTVTLQMTSLTAADTATYFCARDPLIYYYYGELNLWGPGTLVTVSS VL: AVVLTQTASPVSAPVGGTVTIKCQASEDISSNLAWYQQKPGQRPKVLIYSASTLASGVSSQFKGSGSGTQFTLTISDLECADAATYYCQSYYDISSVTFGGGTKVEIKR",
    "READOUT_VALUE": 108
  }
]
